- SYSTEM NAME: T1, human galanin (mature, processed form) (human, UniProt P22466 33-62, 125I-labelled in the filtration and immunoprecipitation assays; biotinylated in the IGEN assay and in the BIAcore assay of Table 4)
- T1 construct: mature; the assays used the mature peptide; also called biotinylated galanin
- T1 peptide (looked up): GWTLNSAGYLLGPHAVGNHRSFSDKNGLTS
- PROTOCOL DESCRIPTION: BIAcore SPR; biotinylated galanin on a streptavidin chip, MAb flowed
MEASURED ENDPOINT: Ka (M⁻¹)

1. murine monoclonal antibody 1G12 (antibody, mouse IgG1, V domains shown, The legend prints 'murine 1G2' for the VH) VH: EVQLQQSGAELVKPGASVQLSCTASGFNIKDYYIHWVQQRTEQGLEWIGRIDPEDGEIEYAPKFQDKATITADTSSNTAYLQLSSLTSEDSAVYYCTRGYASWGQGTTLTVSS VL: DVLMTQTPLSLPVSLGDQASISCRSSQTFVHSDGNTYLEWYLQKPGQSPKLLIYKVSNRFSGVPDRFSGSGSGTDFTLKISRVEAEDLGVYYCFQGSHVPYTFGGGTKLEIKR	9.3e+09
2. murine monoclonal antibody 2F8 (antibody, mouse IgG1, V domains shown) VH: EVQLQQSGAELVRPGALVKLSCKASGFNIEDYYIHWVRQRPEEGLEWIGRIDPENGNTIYDPKFQGKASLTADTSSNTAYLQLSSLTSEDTAVYFCARGYVDWGQGTLVTVSA VL: DVLMTQTPLSLPVSLGDQASISCRSSQSIVHSDGDTYLEWYLQKPGQSPKLLIYKVSNRFSGVPDRFSGSGSGTDFTLKIIRVEAEDLGLYFCFQGSHVPYTFGGGTKLEIKR	6.8e+09
3. murine monoclonal antibody 1D7 (antibody, mouse IgG1, V domains shown, purified from ascites; also called hybridoma 1D7D1 (ATCC PTA-5650)) VH: EIQLQQSEAELVKPGASVRLSCATSGFNIKDYYIHWVKQTTEQGLEWIGRIDPEDGETEYAPKFQGKATIAADTSSNTAYLLLNSLSSEDTAVYYCTRGYASWGQGTTLTVSS VL: DVLMTQTPLSLSVSLGDQASISCRSSQSFVHSDGNTYLEWYLQKSGQSPKLLIYKVSNRFSGVPDRFSGSGSGTDFTLKINRVEAEDLGVYYCFQGSHVPYTFGGGTKLEIKR	1.5e+10
4. murine monoclonal antibody 5B4 (antibody, mouse IgG2a, V domains shown, purified from ascites; also called hybridoma 5B4C1 (ATCC PTA-5651)) VH: EVQLQQSGAELVRPGALVKLSCKASGFNIEDYYMHWVRQRPEEGLEWIGRIDPENGNTIYDPKFQGKASITADTSSNTAYLQLSSLTSEDTAVYYCVRGYVDWGQGTLVTVSA VL: DVLMTQTPLSLPVSLGDQASISCRSSQSIVHSDGDTYLEWYLQKAGQSPKLLIYKVSNRFSGVPDRFSGSGSGTDFTLKISRVEAEDLGLYYCFQGSHVPYTFGGGTKLEIKR	7.5e+09
5. murine monoclonal antibody 1A1 (antibody, V domains shown, the legend is followed) VH: EIQLQQSEAELVRPGALVKLSCKTSGFNIKDYYMHWVKQRPEQGLEWIGRIDPENDNSIYDPNFQGKASITADTSSNTAYLQLSSLTSEDTAVYYCVRGYVDWGQGTLVTVSA VL: DVLMTQTPLSLPVSLGDQASISCRSSQSIVHSDGDTYLEWYLQKPGQSPKLLIFKVSNRFSGVPDRFSGSGSGTDFTLKISRVEAEDLGVYYCFQGSHVPYTFGGGTKLEIKR	2.5e+09
6. murine monoclonal antibody 2H9 (antibody, mouse IgG1, V domains shown) VH: EIQLQQSEAELVKPGASVRLSCATSGFNIKDYYIHWVKQTTEQGLEWIGRIDPEDGETEYAPKFQGKATIAADTSSNTAYLLLNSLSSEDTAVYYCTRGYASWGQGTTLTVSS VL: DVLMTQTPLSLSVSLGDQASISCRSSQSFVHSDGNTYLEWYLQKSGQSPKLLIYKVSNRFSGVPDRFSGSGSGTDFTLKINRVEAEDLGVYYCFQGSHVPYTFGGGTKLEIKR	6.7e+09
7. murine monoclonal antibody 4B3 (antibody, mouse IgG1, V domains shown, purified from ascites) VH: EIQLQQSEAELVKPGASVRLSCATSGFNIKDYYIHWVKQTTEQGLEWIGRIDPEDGETEYAPKFQGKATIAADTSSNTAYLLLNSLSSEDTAVYYCTRGYASWGQGTTLTVSS VL: DVLMTQTPLSLSVSLGDQASISCRSSQSFVHSDGNTYLEWYLQKSGQSPKLLIYKVSNRFSGVPDRFSGSGSGTDFTLKINRVEAEDLGVYYCFQGSHVPYTFGGGTKLEIKR	1.4e+10
